abundance fitness reference
B1: Tudor domain-containing protein 3, residues 554 to 611; numbered along this chain, Q9H7E2 (parent)
chain: KMWKPGDECFALYWEDNKFYRAEVEALHSSGMTAVVKFIDYGNYEEVLLSNIKPIQTE

Variants of: B1
Run Description: abundance fitness (aPCA) (normalised: wild type 0, dead -1); higher = more abundant; growth selection in yeast, the domain comes from the species named
Condition Details: Homo sapiens
Quantity Measured: abundance fitness

{"Mutation Annotation": "N43W", "Measurement": -0.059}
{"Mutation Annotation": "N17C", "Measurement": -0.349}
{"Mutation Annotation": "E8T", "Measurement": -0.083}
{"Mutation Annotation": "E15H", "Measurement": -0.251}
{"Mutation Annotation": "G31Q", "Measurement": -0.043}
{"Mutation Annotation": "V24K", "Measurement": -0.849}
{"Mutation Annotation": "H28W", "Measurement": -0.871}
{"Mutation Annotation": "M2P", "Measurement": -0.36}
{"Mutation Annotation": "K4C", "Measurement": -0.169}
{"Mutation Annotation": "Y13K", "Measurement": -0.028}
{"Mutation Annotation": "V35W", "Measurement": -0.087}
{"Mutation Annotation": "Q56G", "Measurement": 0.031}
{"Mutation Annotation": "M32I", "Measurement": -0.24}
{"Mutation Annotation": "D7T", "Measurement": -0.502}
{"Mutation Annotation": "D7N", "Measurement": -0.631}
{"Mutation Annotation": "H28Y", "Measurement": -0.401}
{"Mutation Annotation": "A22L", "Measurement": -0.857}
{"Mutation Annotation": "G6F", "Measurement": -0.828}
{"Mutation Annotation": "G31V", "Measurement": -0.45}
{"Mutation Annotation": "C9Y", "Measurement": -0.802}
{"Mutation Annotation": "A26P", "Measurement": -0.897}
{"Mutation Annotation": "V36K", "Measurement": -0.843}

# credit: the Human Domainome abundance scans (Beltran et al. 2025)
